target_or_system: PDEV (Homo sapiens, UniProt O76074)
Construct: rabbit or human tissues were homogenized in an ice-cold buffer solution
measurement_notes: Cyclic nucleotide phosphodiesterase (PDE) assay, inhibition of PDEV isolated from human tissue
recorded_conditions: PDEV; footnote a: tested using human tissue
Threshold 100 nM. IC50 below it: 1 (yes). IC50 at it or above: 0 (no).

Past entries and their recorded results:
Quick check: IC50 of COc1ccc(-c2cnc(N3CCc4c([nH]c5ccccc45)C3c3ccc4c(c3)OCCO4)nc2)cc1 (stereo not drawn) under 100 nM? 0 (no)

Find out if reported IC50 for COc1ccc(-c2cnc(N3CC(=O)c4c([nH]c5ccccc45)C3c3ccc4c(c3)OCO4)nc2)cc1 (stereo not drawn) is less than 100 nM 1 (yes)

Record c1cnc(N2CCc3c([nH]c4ccccc34)C2c2ccc3c(c2)OCO3)nc1 (stereo not drawn) : is its IC50 strictly below 100 nM? 0 (no)

Lab log: compare recorded IC50 with 100 nM; is it strictly lower for c1ccc(-c2cnc(N3CCc4c([nH]c5ccccc45)C3c3ccc4c(c3)OCO4)nc2)nc1 (stereo not drawn) ? 0 (no)

Others:
is_below(IC50, 100 nM) for COc1ccc(-c2cnc(N3CC(=O)c4c([nH]c5ccccc45)C3c3ccc4c(c3)OCO4)nc2)cc1OC (stereo not drawn) ? 1 (yes)

Answer whether the molecule COc1ccc(-c2cnc(N3CCc4c([nH]c5ccccc45)C3c3ccc4c(c3)CCO4)nc2)cc1 (stereo not drawn) has IC50 strictly less than 100 nM 0 (no)

----------
target_or_system: PDEV (Oryctolagus cuniculus)
measurement_notes: Cyclic nucleotide phosphodiesterase (PDE) assay, inhibition of PDEV isolated from rabbit tissue
Type: biochemical
recorded_conditions: 10 μM test compound; rabbit PDEV; read-out: % INH @ 10 μM (rabbit)
Entries and their measured inhibition at 10 µM follow.
Please respond with the number in % and leave the unit unwritten.

Quick one: inhibition at 10 µM for CN(C)CCn1c2c(c3ccccc31)CCN(C(=O)c1ccc(-c3ccccc3)o1)C2c1ccc2c(c1)OCO2 (stereo not drawn) [Cmpd 152] ? 80

Record request: inhibition at 10 µM value, item O=C(c1ccc(-c2ccccc2)o1)N1CCc2c([nH]c3ccccc23)C1c1ccc2c(c1)OCO2 (stereo not drawn) [Cmpd 149] 80

What value of inhibition at 10 µM has been recorded for this entry: CN(C)CCn1c2c(c3ccccc31)CCN(C(=O)c1cc3ccccc3o1)C2c1ccc2c(c1)OCO2 (stereo not drawn) [Cmpd 147] 52

New cases:
Which inhibition at 10 µM is reported for this compound? c1ccc(-c2cnc(N3CCc4c([nH]c5ccccc45)C3c3ccc4c(c3)OCO4)nc2)nc1 (stereo not drawn) [Cmpd 153] 95

Would you kindly share the measured inhibition at 10 µM for COc1ccc(-c2cnc(N3CCc4c(n(CCN5CCCC5)c5ccccc45)C3c3ccc4c(c3)OCO4)nc2)cc1 (stereo not drawn) [Cmpd 148] ? 66

Quick one: inhibition at 10 µM of CN(C)CCn1c2c(c3ccccc31)CCN(c1nc3ccccc3o1)C2c1ccc2c(c1)OCO2 (stereo not drawn) [Cmpd 155] ? 57

----------
target_or_system: PDEV (Oryctolagus cuniculus, UniProt G1SX67)
measurement_notes: Cyclic nucleotide phosphodiesterase (PDE) assay, inhibition of PDEV isolated from rabbit tissue
Type: biochemical
recorded_conditions: 10 μM test compound; rabbit PDEV
quantity_name: % Inh @ 10 μM (rabbit)
Enter the number, and then the unit.

May I ask what % Inh @ 10 μM (rabbit) has been recorded for CN(C)c1ccc(C2c3[nH]c4ccccc4c3CCN2C(=O)c2ccc(-c3cccc(C(F)(F)F)c3)o2)cc1 (stereo not drawn) ? 13%

Field request: % Inh @ 10 μM (rabbit) | item: COc1ccc(C2c3[nH]c4ccccc4c3CCN2C(=O)c2cnn(-c3ccccc3)c2C(F)(F)F)cc1OC (racemic) 10%

Which value of % Inh @ 10 μM (rabbit) has been reported for CC(C)(C)c1cc(C(=O)N2CCc3c([nH]c4ccccc34)C2c2ccc(Cl)c(Cl)c2)n(Cc2ccccc2)n1 (stereo not drawn) in the records? 1%

So what's the measured % Inh @ 10 μM (rabbit) for this one? CN(C)CCn1c2c(c3ccccc31)CCN(c1ncc(-c3ccc(Cl)cc3)cn1)C2c1ccc2c(c1)OCO2 (stereo not drawn) 94%

Form field: reported % Inh @ 10 μM (rabbit) of FC(F)(F)c1ccc(Cl)c(-c2ccc(CN3CCc4c([nH]c5ccccc45)C3c3ccc4c(c3)OCO4)o2)c1 (stereo not drawn) 53%

Suppose we examine the compound Cc1ccc(C2c3[nH]c4ccccc4c3CCN2C(=O)c2c(-c3ccccc3)noc2C)cc1C (racemic) ; what % Inh @ 10 μM (rabbit) value has been reported? 35%

Can you share its % Inh @ 10 μM (rabbit)? I mean this compound: O=C(c1cc(-c2ccccc2)c(C(F)(F)F)s1)N1CCc2c([nH]c3ccccc23)C1c1ccc2c(c1)OCO2 (stereo not drawn) 69%

// % Inh @ 10 μM (rabbit) lookup, key: O=C(c1cc2cc([N+](=O)[O-])ccc2o1)N1CCc2c([nH]c3ccccc23)C1c1ccc2c(c1)OCO2 (stereo not drawn) 88%

Next item in the queue.
Looking for the measured % Inh @ 10 μM (rabbit) of O=C(O)C1Cc2c([nH]c3ccccc23)C(c2ccc3c(c2)OCO3)N1C(=O)c1ccc(-c2cccc([N+](=O)[O-])c2)o1 (stereo not drawn) , can you help? 50%

----------
target_or_system: PDEV (Oryctolagus cuniculus)
measurement_notes: Cyclic nucleotide phosphodiesterase (PDE) assay, inhibition of PDEV isolated from rabbit tissue
Format: biochemical
recorded_conditions: 10 μM test compound; rabbit PDEV
quantity_name: % Inh @ 10 μM (rabbit) (%)
Give a bare numeral; the unit % is implied.

Consider the compound shown here: Cc1ccc(-c2ccc(C(=O)N3CCc4c(n(CCN(C)C)c5ccccc45)C3c3ccc4c(c3)OCO4)o2)c([N+](=O)[O-])c1 (stereo not drawn) [Cmpd 42] What is its recorded % Inh @ 10 μM (rabbit)? 89

Please look up its % Inh @ 10 μM (rabbit): COc1ccc(C2c3[nH]c4ccccc4c3CCN2C(=O)c2c(-c3ccccc3)noc2C)cc1OC (racemic) [Cmpd 110] 32

Query (compound): O=C(c1ccc(-c2ccc([N+](=O)[O-])cc2)o1)N1CCc2c([nH]c3ccccc23)C1c1ccc2c(c1)OCO2 (stereo not drawn) [Cmpd 50] ; field requested: % Inh @ 10 μM (rabbit) 76
